Origin of the recorded values: ChEMBL document CHEMBL3632556

# PROCEDURE SUMMARY: Lipophilicity, RM of the compound by RP-TLC method
# Format: physicochemical
PARAMETER: Rm

Worked cases, answers included:
CCOC(=O)CC1c2cccc(O)c2C(=O)c2c(O)cccc21
0.63
NCCCCNC(=O)CC1c2cccc(O)c2C(=O)c2c(O)cccc21.O=C(O)C(F)(F)F
0.63

Provide Rm for all items below, preserving their order.
1. O=C1c2c(O)cccc2Cc2cccc(O)c21
2. CCCCNC(=O)CC1c2cccc(O)c2C(=O)c2c(O)cccc21
3. COc1ccc(C(NC(=O)CC2c3cccc(O)c3C(=O)c3c(O)cccc32)c2ccc(OC)cc2)cc1
4. O=C(CC1c2cccc(O)c2C(=O)c2c(O)cccc21)NCc1ccccc1

1: 0.7; 2: 0.05; 3: 0.66; 4: 0.66
